Procedure details: basal MM1S mitochondrial membrane potential changes, profiling panel, cell-based, JC-1 fluorescence, 24 h, 100 nL compound (AID 1170); also: test concentration not given here
Details: higher = more signal
Please map values of z-score to classes as shown: low = under -1, mid = from -1 up to -0.2, high = -0.2 and over

Sample answers from the record:
Compound	Group
CO[C@H]1O[C@H](CO)[C@@H](OC(=O)c2ccc(Br)cc2)[C@@H]2OC(=O)[C@@H](Cc3ccc4ccccc4c3)C/C=C/C[C@H](Cc3ccc4ccccc4c3)C(=O)O[C@@H]12	high
CN1C(=O)C2C=CC(C(O)C3CCCCC3)N(N3CCCCC3)C2C1=O (stereo not drawn)	mid

Sort "COC(=O)[C@@]1(Cc2ccc(OC)cc2)[C@H]2c3cc(C(=O)N(C)C)n(Cc4nc5ccccc5[nH]4)c3C[C@H]2CN1C(=O)c1ccccc1" into one of the categories. low
